Cited source for all entries: patent US20170253601A1

# IC50 per entry
Target: SMYD2 (Homo sapiens, UniProt Q9NRG4)
Construct: Full length SMYD2 (NP 064582.2) was cloned; His6 (N, cleaved yes); FLAG (N); made in house; host or cells: Sf9 insect cells
Sequence (Q9NRG4 whole entry): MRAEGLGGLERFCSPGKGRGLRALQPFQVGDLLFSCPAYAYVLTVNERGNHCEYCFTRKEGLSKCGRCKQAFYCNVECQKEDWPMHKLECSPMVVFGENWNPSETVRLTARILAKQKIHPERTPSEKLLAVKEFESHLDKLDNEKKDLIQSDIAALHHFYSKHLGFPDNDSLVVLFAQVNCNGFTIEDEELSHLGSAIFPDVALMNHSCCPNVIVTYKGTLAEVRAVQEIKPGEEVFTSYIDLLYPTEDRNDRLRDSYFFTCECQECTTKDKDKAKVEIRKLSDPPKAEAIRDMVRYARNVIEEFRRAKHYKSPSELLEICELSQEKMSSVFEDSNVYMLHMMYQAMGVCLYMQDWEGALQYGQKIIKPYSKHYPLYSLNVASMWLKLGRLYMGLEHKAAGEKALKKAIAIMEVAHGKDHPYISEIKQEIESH
Assay: SMYD2 Biochemical Assay (3H-SAM, biotinylated peptide substrate, Flashplate)
Conditions: IC50 values are an average of n = 1 to n = 50; read-out: SMYD2 Biochem IC50 (μM)*
Text: S-adenosylmethionine (SAM), S-adenosylhomocysteine (SAH), bicine, Tween20, dimethylsulfoxide (DMSO), bovine skin gelatin (BSG), and Tris(2-carboxyethyl)phosphine hydrochloride (TCEP) were purchased from Sigma-Aldrich at the highest level of purity possible. ^3H-SAM was purchase from American Radiolabeled Chemicals with a specific activity of 80 Ci/mmol. 384-well streptavidin Flashplates were purchased from PerkinElmer. […]

Query block: Param request: IC50 | system SMYD2 (Homo sapiens, UniProt Q9NRG4) | item C[C@@H]1CN(CC(N)=O)C[C@H]1NC(=O)c1cc(C2CC2)on1 (racemic)
Result block: > 50 µM

Query block: Param request: IC50 | system SMYD2 (Homo sapiens, UniProt Q9NRG4) | item CC(C)N1C[C@@H](C)[C@H](NC(=O)c2cc(C3(C)CCC3)on2)C1 (racemic)
Result block: > 50 µM

Query block: Param request: IC50 | system SMYD2 (Homo sapiens, UniProt Q9NRG4) | item C[C@H]1CN(c2ccccc2)C[C@H]1NC(=O)c1cc(C2CC2)on1 (racemic)
Result block: > 50 µM

Query block: Param request: IC50 | system SMYD2 (Homo sapiens, UniProt Q9NRG4) | item C[C@@H]1CN(C2CCS(=O)(=O)CC2)C[C@H]1NC(=O)c1cc(C2CC2)on1 (racemic)
Result block: > 50 µM

Query block: Param request: IC50 | system SMYD2 (Homo sapiens, UniProt Q9NRG4) | item CC(=O)Nc1cccc(N2C[C@H](C)[C@H](NC(=O)c3cc(C4CC4)on3)C2)c1 (racemic)
Result block: > 50 µM

Query block: Param request: IC50 | system SMYD2 (Homo sapiens, UniProt Q9NRG4) | item C[C@H]1CN(CC2CCOCC2)C[C@H]1NC(=O)c1cc(C2CC2)on1 (racemic)
Result block: 3.95 µM

Query block: Param request: IC50 | system SMYD2 (Homo sapiens, UniProt Q9NRG4) | item C[C@H]1CN(CC2CCNC2)C[C@H]1NC(=O)c1cc(C2CC2)on1 (mixture of isomers)
Result block: > 50 µM

Query block: Param request: IC50 | system SMYD2 (Homo sapiens, UniProt Q9NRG4) | item C[C@H]1CN(Cc2c[nH]c(-c3ccccc3)n2)C[C@H]1NC(=O)c1cc(C2CC2)on1 (racemic)
Result block: 21.1 µM

# next molecule below
Query block: Param request: IC50 | system SMYD2 (Homo sapiens, UniProt Q9NRG4) | item C[C@H]1CN(c2ccncc2)C[C@H]1NC(=O)c1cc(C2CC2)on1 (racemic)
Result block: > 50 µM

----------
biological target: SMYD2 (Homo sapiens, UniProt Q9NRG4); construct: Full length SMYD2 (NP 064582.2) was cloned; His6 (N, cleaved yes); FLAG (N); made in house; host or cells: Sf9 insect cells; test: SMYD2 Biochemical Assay (3H-SAM, biotinylated peptide substrate, Flashplate); conditions: IC50 values are an average of n = 1 to n = 50; read-out: SMYD2 Biochem IC50 (μM)*
# IC50 per entry

Query block: Write down IC50 measured for item C[C@@H]1CN(CC2CCC2)C[C@H]1NC(=O)c1cc(C2CC2)on1 (racemic) [compound 156]
Result block: > 50 µM

Query block: Write down IC50 measured for item CC(N1C[C@H](C)[C@H](NC(=O)c2cc(C3CC3)on2)C1)C(F)(F)F (stereo in doubt) [compound 285]
Result block: > 50 µM

Query block: Write down IC50 measured for item COc1cc(CN2C[C@H](C)[C@H](NC(=O)c3cc(C4CC4)on3)C2)cc(OC)c1 (racemic) [compound 333]
Result block: > 50 µM

Query block: Write down IC50 measured for item C[C@@H]1CN(Cc2ccccc2)C[C@H]1NC(=O)c1cc(C2CC2)on1 (racemic) [compound 117]
Result block: > 50 µM

---
Query block: Write down IC50 measured for item C[C@@H]1CN(Cc2c[nH]c3ccccc23)C[C@H]1NC(=O)c1cc(C2CC2)on1 (racemic) [compound 160]
Result block: > 50 µM

Query block: Write down IC50 measured for item C[C@H]1CN(CC(=O)N2CCOCC2)C[C@H]1NC(=O)c1cc(C2CC2)on1 (racemic) [compound 270]
Result block: > 50 µM

Query block: Write down IC50 measured for item C[C@@H]1CN(Cc2cc3ccccc3s2)C[C@H]1NC(=O)c1cc(C2CC2)on1 (racemic) [compound 152]
Result block: > 50 µM

Query block: Write down IC50 measured for item C[C@@H]1CN(Cc2ccnc3ccccc23)C[C@H]1NC(=O)c1cc(C2CC2)on1 (racemic) [compound 159]
Result block: > 50 µM

Query block: Write down IC50 measured for item Cc1nc[nH]c1CN1C[C@@H](C)[C@H](NC(=O)c2cc(C3CC3)on2)C1 (racemic) [compound 173]
Result block: > 50 µM

Query block: Write down IC50 measured for item CC(C)N1C[C@@H](NC(=O)c2cc(C3CC3)on2)C[C@H]1COCC#CC1CCCCC1 (racemic) [compound 239]
Result block: > 50 µM

Query block: Write down IC50 measured for item COc1ccc(CN2C[C@H](C)[C@H](NC(=O)c3cc(C4CC4)on3)C2)c(OC)c1 (racemic) [compound 212]
Result block: 5.23 µM

Query block: Write down IC50 measured for item CN1C[C@H](NC(=O)c2cc(C3CC3)on2)[C@H](C(C)(C)C)C1 (racemic) [compound 257]
Result block: > 50 µM

----------
# IC50 per entry
molecular target: SMYD2 (Homo sapiens, UniProt Q9NRG4); construct: Full length SMYD2 (NP 064582.2) was cloned; His6 (N, cleaved yes); FLAG (N); made in house; host or cells: Sf9 insect cells; assay: SMYD2 Biochemical Assay (3H-SAM, biotinylated peptide substrate, Flashplate); conditions: IC50 values are an average of n = 1 to n = 50; read-out: SMYD2 Biochem IC50 (μM)*

Here are 2 compounds together with their reported answers.
Query block: Write down IC50 measured for item C[C@H]1CN(c2cccnc2)C[C@H]1NC(=O)c1cc(C2CC2)on1 (racemic) [compound 336]
Result block: > 50 µM

Query block: Write down IC50 measured for item C[C@@H]1CN(Cc2ccc3ncccc3c2)C[C@H]1NC(=O)c1cc(C2CC2)on1 (racemic) [compound 204]
Result block: > 50 µM

# next compound below
Query block: Write down IC50 measured for item C[C@@H]1CN(c2cnccn2)C[C@H]1NC(=O)c1cc(C2CC2)on1 (racemic) [compound 292]
Result block: > 50 µM

----------
Form: system (UniProt:Q9H7B4), quantity (IC50), values below.
Sequence (Q9H7B4 whole entry): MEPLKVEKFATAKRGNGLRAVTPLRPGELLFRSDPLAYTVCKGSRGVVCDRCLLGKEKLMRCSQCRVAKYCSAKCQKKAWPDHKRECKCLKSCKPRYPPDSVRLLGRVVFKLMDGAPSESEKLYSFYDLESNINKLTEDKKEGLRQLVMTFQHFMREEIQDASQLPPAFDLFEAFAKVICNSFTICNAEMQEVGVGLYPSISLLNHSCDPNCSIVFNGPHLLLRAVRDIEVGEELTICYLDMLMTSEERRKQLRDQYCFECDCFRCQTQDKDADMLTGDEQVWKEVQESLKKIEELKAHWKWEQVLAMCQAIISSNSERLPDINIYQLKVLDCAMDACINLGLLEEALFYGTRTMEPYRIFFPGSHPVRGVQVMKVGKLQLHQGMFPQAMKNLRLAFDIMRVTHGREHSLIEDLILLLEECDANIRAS

Query block: Write down IC50 measured for item Cc1cc(N2CCC(NC(=O)c3cc(C4CC4)on3)C2=O)n(C)n1 (stereo not drawn)
Result block: > 200 µM

Query block: Write down IC50 measured for item "CC(=O)Nc1ccc(S(=O)(=O)N2CC[C@@H](NC(=O)c3cc(C4CC4)on3)C2)cc1"
Result block: > 100 µM

Query block: Write down IC50 measured for item C[C@@H]1C[C@H](NC(=O)c2cc(C3CC3)on2)C(=O)N1c1cnn(C)c1 (racemic)
Result block: > 200 µM

----------
# IC50 per entry
target: SMYD2 (Homo sapiens, UniProt Q9NRG4); construct: Full length SMYD2 (NP 064582.2) was cloned; His6 (N, cleaved yes); FLAG (N); made in house; host or cells: Sf9 insect cells; experiment: SMYD2 Biochemical Assay (3H-SAM, biotinylated peptide substrate, Flashplate); conditions: IC50 values are an average of n = 1 to n = 50; read-out: SMYD2 Biochem IC50 (μM)*

Query block: Write down IC50 measured for item C[C@@H]1CN(Cc2ccc(-c3cc(Cl)ccc3Cl)o2)C[C@H]1NC(=O)c1cc(C2CC2)on1 (racemic) [compound 171]
Result block: > 50 µM

Query block: Write down IC50 measured for item C[C@@H]1CN(Cc2ccccc2Cl)C[C@H]1NC(=O)c1cc(C2CC2)on1 (racemic) [compound 142]
Result block: 27.5 µM

Query block: Write down IC50 measured for item C[C@H]1CN(c2cccc(Cl)c2)C[C@H]1NC(=O)c1cc(C2CC2)on1 (racemic) [compound 307]
Result block: > 50 µM

Query block: Write down IC50 measured for item CC(C)[C@H]1CN(C(C)C)C[C@@H]1NC(=O)c1cc(C2CC2)on1 (racemic) [compound 178]
Result block: > 50 µM

Query block: Write down IC50 measured for item C[C@@H]1CN(Cc2c[nH]cn2)C[C@H]1NC(=O)c1cc(C2CC2)on1 (racemic) [compound 180]
Result block: 42.5 µM

---
Query block: Write down IC50 measured for item CC(C)N1C[C@H](C)[C@H](NC(=O)c2cc(C3(C)CCC3)on2)C1 (racemic) [compound 260]
Result block: > 50 µM

Query block: Write down IC50 measured for item C[C@@H]1CN(CCC2CCN(C(=O)OC(C)(C)C)CC2)C[C@H]1NC(=O)c1cc(C2CC2)on1 (racemic) [compound 132]
Result block: > 50 µM

Query block: Write down IC50 measured for item C[C@@H]1CN(CCC2CCNCC2)C[C@H]1NC(=O)c1cc(C2CC2)on1 (racemic) [compound 133]
Result block: > 50 µM

Query block: Write down IC50 measured for item C[C@H]1CN(CC2CCN(C(=O)OC(C)(C)C)CC2)C[C@H]1NC(=O)c1cc(C2CC2)on1 (racemic) [compound 205]
Result block: 7.69 µM
